# Tested on: Escherichia coli
# run parameters: Concentration 20 uM; ASSAY_TEST Inhibition of Bacterial Growth; detection method Absorption (OD600); MEDIA CAMHB; plate type 384well; NBS; CORNING #3640; time 18 hr
# Description: Antibacterial activity against Escherichia coli ATCC 25922 (CO-ADD:GN_001); MIC in CAMBH media using NBS plates, by OD(600)
Measured potencies and affinities stand elsewhere.
As shown below, each of these compounds has a reported Inhibition value.
The answer is to be given in %; state only the numeric part.

Recorded results for 5 compounds are shown here.
>>> value("CN1CCN(CCCN2c3ccccc3Sc3ccc(C(F)(F)F)cc32)CC1.Cl.Cl [TRIFLUOPERAZINE HYDROCHLORIDE]")
0.85
>>> value("O=c1c(O[C@@H]2O[C@H](CO)[C@H](O)[C@H](O)[C@H]2O)c(-c2ccc(O)c(O)c2)oc2cc(O)cc(O)c12 [HYPEROSIDE]")
3.89
>>> value("CC(COc1ccccc1Cc1ccccc1)N1CCCCC1.O=P(O)(O)O (stereo unspecified)")
7.84
>>> value("Cc1ccsc1C(=CCCN1CCC[C@@H](C(=O)O)C1)c1sccc1C.Cl [TIAGABINE HYDROCHLORIDE]")
-1.1
>>> value("Nc1ncnc2c1ncn2[C@@H]1O[C@H](CO)C[C@@H]1O.O")
1.02

Please report the recorded Inhibition for CN(C)CCN(Cc1ccccc1)c1ccccn1.Cl [TRIPELENNAMINE HYDROCHLORIDE] .
7.66

Please report the recorded Inhibition for CCCC(CCC)C(=O)O .
-0.41

Please report the recorded Inhibition for CS(=O)(=O)c1ccc(-c2cc(Br)sc2-c2ccc(F)cc2)cc1 .
-0.37

Please report the recorded Inhibition for COc1ccccc1N1CCN(CCCNc2cc(=O)n(C)c(=O)n2C)CC1.Cl [URAPIDIL HYDROCHLORIDE] .
0.81

Please report the recorded Inhibition for CCc1nn(CCCN2CCN(c3cccc(Cl)c3)CC2)c(=O)n1CCOc1ccccc1.Cl [NEFAZODONE HYDROCHLORIDE] .
3.73

Please report the recorded Inhibition for OC[C@H]1O[C@@H](Oc2cc(O)cc(/C=C/c3ccc(O)cc3)c2)[C@H](O)[C@@H](O)[C@@H]1O .
8.13

====

# System: Escherichia coli
# run parameters: Concentration 20 uM; ASSAY_TEST Inhibition of Bacterial Growth; detection method Absorption (OD600); MEDIA CAMHB; plate type 384well; NBS; CORNING #3640; time 18 hr
Entries with a potency or affinity are not part of this list.
reported property: Inhibition (%)
The answer is to be given in %; state only the numeric part.

Recorded results for 4 compounds are shown here.
>>> value("CC1(C)C[C@@H]1C(=O)N/C(=C\\CCCCSC[C@H](N)C(=O)O)C(=O)[O-].[Na+] [CILASTATIN SODIUM]")
-0.62
>>> value("Cc1ccc(Cl)c(Nc2ccccc2C(=O)[O-])c1Cl.O.[Na+] [MECLOFENAMATE SODIUM]")
2.5
>>> value("O=C(C1CCCCC1)N1CC(=O)N2CCc3ccccc3C2C1 (configuration not stated)")
3.85
>>> value("CC[C@]1(O)C[C@@H]2CN(CCc3c([nH]c4ccccc34)[C@@](C(=O)OC)(c3cc4c(cc3OC)N(C)[C@H]3[C@@](O)(C(N)=O)[C@H](O)[C@]5(CC)C=CCN6CC[C@]43[C@@H]65)C2)C1.O=S(=O)(O)O [VINDESINE SULFATE]")
3.57

Please report the recorded Inhibition for CCCNC(=O)NS(=O)(=O)c1ccc(Cl)cc1 [CHLORPROPAMIDE] .
2.94

Please report the recorded Inhibition for CC[C@H](C)C(=O)O[C@H]1CCC=C2C=C[C@H](C)[C@H](CC[C@@H]3C[C@@H](O)CC(=O)O3)[C@H]21 .
8.43

Please report the recorded Inhibition for NS(=O)(=O)c1cc2c(cc1C(F)(F)F)NC(Cc1ccccc1)NS2(=O)=O (configuration not stated) [BENDROFLUMETHIAZIDE] .
-3.75

src = ChEMBL document CHEMBL4513141
